Values were extracted from paper PMC5046105.

assay_system: Pseudo wild type SAP97 PDZ2 (second PDZ domain of synapse associated protein 97, I342W/C378A) (human) (UniProt Q12959)
Sequence (Q12959 311-407, stated change not applied): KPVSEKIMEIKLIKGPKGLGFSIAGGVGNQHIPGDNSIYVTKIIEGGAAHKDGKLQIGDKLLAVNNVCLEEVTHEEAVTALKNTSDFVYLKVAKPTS
measurement_notes: stopped-flow spectroscopy
Ends that are not written are not given here.
measurement_kind: kon
Kindly write the number and append the unit.

>>> value("Ac-PGKETQL [PGKETQL peptide (C-terminus of SO1C1_HUMAN)]")
"1.8e+07 M⁻¹ s⁻¹"
>>> value("SARSTDV [SARSTDV peptide (C-terminus of anoctamin-9)]")
"1.6e+07 M⁻¹ s⁻¹"
>>> value("Ac-KRKETLV [KRKETLV peptide (C-terminus of neuroepithelial cell-transforming gene 1 protein, Net1)]")
"6.4e+06 M⁻¹ s⁻¹"
>>> value("Ac-TSRETDL [TSRETDL peptide (C-terminus of potassium voltage-gated channel subfamily A member 5, Kv1.5)]")
"3.3e+07 M⁻¹ s⁻¹"
>>> value("Ac-NSKETVV [NSKETVV peptide (C-terminus of E3 ubiquitin-protein ligase MARCH3)]")
"1.3e+07 M⁻¹ s⁻¹"
>>> value("Ac-YRRESAI [YRRESAI peptide (C-terminus of inward rectifier potassium channel 4, Kir2.3)]")
"1.9e+07 M⁻¹ s⁻¹"

Provide reported kon for each item, in the same order as listed.
1. Ac-RSISTDV [RSISTDV peptide (C-terminus of protein FAM163B)]
2. Ac-VSKETPL [VSKETPL peptide (C-terminus of mitogen-activated protein kinase 12, p38γ)]
3. Ac-EKKHTLL [EKKHTLL peptide (C-terminus of E9PN86_HUMAN, partial transcript of EIF3M_HUMAN)]

1. 2.1e+07 M⁻¹ s⁻¹
2. 4e+07 M⁻¹ s⁻¹
3. 1.2e+07 M⁻¹ s⁻¹
